- TESTED TARGET: Matrix metalloproteinase-14 (Homo sapiens, UniProt P50281)
- PROTOCOL DETAILS: Inhibition of human recombinant MMP14 after 60 mins by fluorescence plate reader
ENDPOINT NAME: IC50 (µM)
# number only, unit µM dropped from output

STRUCTURE STRING	IC50 [µM]
C[C@@H]1[C@H](c2ccccc2)[C@]1(NS(=O)(=O)c1ccc(-c2ccc(Cl)cc2)s1)C(=O)O	0.019

Consider the record given below.
stdin: Answer with the recorded IC50 of "C[C@@H]1[C@H](c2ccccc2)[C@]1(NS(=O)(=O)N1CCc2c(nc3cc(F)ccn23)C1)C(=O)O" only.
stdout: 2.1

Data origin, for the record: ChEMBL document CHEMBL1765003
